Data provenance: the supplement of paper PMC10567573

I'd appreciate it if you could supply protein stability index values for the items below.
- assay.summary: protein stability index of a GFP-peptide fusion (GPS, HEK-293T) (PSI 1-6); higher = more stable;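 also: 24-mer peptide tiles fused after GFP, lentivirally expressed, FACS-sorted into six equal bins by GFP/DsRed ratio, decoded by Illumina sequencing, PSI is the read-weighted mean bin number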
- condition.summary: treatment: MLN4924 1 uM, 8 h; c terminus: a fixed tail appended

(Q) protein stability index lookup needed for QLSTPHAVGVLLLGLVGYYIFRVA [DHCR7] , thanks.
(A) 2.94

(Q) Looking for the measured protein stability index of GNSRSAPPTRGPPPSYGGSSRYDD [RBMX] , can you help?
(A) 5.05

(Q) Which protein stability index value is on record for LHDRGAQVIHPQEFRRWRDTGVAF [DNAAF3] ?
(A) 2.99

(Q) Requested field: protein stability index. Item: LSRENIQSSLLETLYRNRSNLETI [PPEF2]
(A) 2.64

(Q) Reported protein stability index for QPAGNRRGQARRLAPNFRWAIPNR [BEX3] : what is it?
(A) 3.75

(Q) Please give the measured protein stability index for this sequence: AIHSSDEDEDEDDEEDFEDDDEWE [WASL]
(A) 4.49

(Q) Any idea what protein stability index was measured for FNKDLVQDCGFEHLVPVIEMWADQ [CEP70] ?
(A) 2.65

(Q) # get_value(readout='protein stability index', item= ILIIISVIVQIKQPRKKYVQRKSD [NETO1] )
(A) 2.52

(Q) Look at this sequence and give its reported protein stability index. NGLTLLILGVIGLFTIPLLYRQHQ [RTN2]
(A) 2.93

(Q) For the sequence shown here, KLMKEILDKKVEKVTISNRLVSSP [HSP90AB1] , give the reported protein stability index.
(A) 2.84

(Q) Value lookup for protein stability index; key = GSLDLVPGGLTLEEHSLEQVQSMV [SPDEF]
(A) 4.66

(Q) Sample DYPYSPPTFRFLTKMWHPNIYENG [UBE2R2] — what was its protein stability index?
(A) 2.3

(Q) Could you tell me which protein stability index is on file for DSPSRSPSKVEVTEKTTTVLSESS [C2CD2L] ?
(A) 5.38

(Q) I am curious: what protein stability index value has been reported for SQTEAHYSCQSKEILRYMKEFTLL [P2RY14] ?
(A) 2.3

(Q) Entry under review: EKRSRGQVLFDKVCEHLNLLEKDY [EPB41L3] . Reported protein stability index?
(A) 3.01

(Q) Given the entry KRAPGEETEKEEEEEDREEEDENG [NEUROD6] , report its measured protein stability index.
(A) 5.69

(Q) Which protein stability index value belongs to DYIIRNTDRGNDNWLIKYDCPMDS [PI4K2A] ?
(A) 2.88

(Q) Reported protein stability index, sequence AEFQLVRDVVLCSLLNFLPEGVNK [TENT5C] : ____
(A) 3.07

(Q) What does the data say about its protein stability index? Entry: VVACDFSPDGALLATASYDTRVYI [WSB1]
(A) 2.74

(Q) Param item = GLGRPTPGLSQGPGKETLESALIA [EHMT1] ; retrieve measured protein stability index.
(A) 4.29

(Q) Can you look up the measured protein stability index of YFATFYSCTPRMNRRMVGPDVIPL [FAM189A2] for me?
(A) 2.54

(Q) Given GLANGLQLLCPWAPLSGPQALMLP [VENTX] , state its recorded protein stability index.
(A) 2.1

(Q) I am curious: what protein stability index value has been reported for EAASSSSTLVEVTLGEVPAAESPD [MAGEA3] ?
(A) 5.49

(Q) // protein stability index lookup, key: EELEFQYRRVNELLLSILNPTRQD [ZER1]
(A) 3.04

(Q) GET /values?readout=protein stability index&item= PASPNPFVHELHLSRLQRVKFCLL [LPCAT4]
(A) 2.51

(Q) What value of protein stability index has been reported for the following sequence? SGVDECARQEGLTFFGTELAPVRQ [PBXIP1]
(A) 4.08

(Q) Item under review: MELGGHWDMNSAPRLVSETAERKQ [MFSD9] . Reported protein stability index?
(A) 4.98

(Q) Quick check: protein stability index of EKSVLKEVSHPFLIRLFWTWHDER [PRKX] ?
(A) 2

(Q) I'd like to know its protein stability index. The sequence in question is DSLLVVLDMDEGTLSFIVDGQYLG [SPSB4]
(A) 2.6

(Q) Fill in: protein stability index of EFLTKHLRADNAFMLLTQARLFDE [BTBD1] is ___
(A) 2.18

(Q) Consider the sequence GELLLDVAWHPVRPIIASISSGVV [RBBP5] and give its measured protein stability index.
(A) 2.42

(Q) Looking for the measured protein stability index of LHAQLRDLTSSSSDELSWIIELLE [ELF3] , can you help?
(A) 2.99

(Q) Which value of protein stability index has been reported for GIKVQNGGIVTDTPASNHLPGWED [SLC19A2] in the records?
(A) 4.77

(Q) Item under review: DKEGHLVCRIGDWLQERYEIVGNL [CLK3] . Reported protein stability index?
(A) 2.89

(Q) # protein stability index lookup, item RSHFLWKEPATMSWLEENVHEVLQ [TCF25]
(A) 2.69

(Q) Bench note: what protein stability index did DNWDEKKLEEVVNKKHGEAEKKKP [ZC3H15] show?
(A) 5.75

(Q) Consider the sequence shown here: QPPEESQPPQSQAQVPPAAPHHHH [PLK2] What is its recorded protein stability index?
(A) 5.43

(Q) Given the sequence ICCDKCSVWQHIDCMGIDRQHIPD [KMT2E] , what is its reported protein stability index?
(A) 2.87

(Q) Which protein stability index is reported for this sequence? EEERAFWMENNGHVAGEQMLEDGP [CCDC70]
(A) 5.2

(Q) I'd like to know its protein stability index. The sequence in question is IYQYVQNSMAPHPARDYVVLRTWR [DLC1]
(A) 2.03

(Q) Which protein stability index value belongs to LSLTGVSLAGALGVKFVGLFIILQ [POMT2] ?
(A) 2.39

(Q) Data request, read-out protein stability index, for KGYLFHTVAGKHQDLKYISPEIMA [CDC25A]
(A) 2.43

(Q) # get_value(readout='protein stability index', item= WLYYYAYKDFLWFFSKRFKSAAML [SOAT1] )
(A) 2.29
